- Tested on: biotinyl-Met-oxazolone
- RUN DESCRIPTION: self-aminoacylation, catalytic enhancement (BMO) (fold over background); higher = more active; k-Seq, kA / k0A0; sequences stand for … in GGGAAUGGAUCCACAUCUACGAAUUC…UUCACUGCAGACUUGACGAAGCUG
Variants at the floor of the assay were thinned out.

- CHAIN: "AUUACCCUGUUCGUCGAGUGA [Fam2.1 aminoacylation ribozyme variant]"
  self-aminoacylation: 0.885
- CHAIN: "AUUCACCUAGGCCAUCGGUUG [Fam2.2 aminoacylation ribozyme variant]"
  self-aminoacylation: 1.05
- CHAIN: "AUUCAUCUAGGUCCUCGGGUG [Fam2.2 aminoacylation ribozyme variant]"
  self-aminoacylation: 5.21
- CHAIN: "CCACACCUCAAGCAAGCGGUC [Fam1B.1 aminoacylation ribozyme variant]"
  self-aminoacylation: 1.02
- CHAIN: "AUUACCGAGGUCAUCGAGUGA [Fam2.1 aminoacylation ribozyme variant]"
  self-aminoacylation: 6.93
- CHAIN: "AGGUUUGCUAAGAGUCGCAAG [Fam3.1 aminoacylation ribozyme variant]"
  self-aminoacylation: 1.15
- CHAIN: "GUUACCCUGGUCAUCUAGUGA [Fam2.1 aminoacylation ribozyme variant]"
  self-aminoacylation: 12
- CHAIN: "CCACACUUAAUGCAAUCGGUC [Fam1B.1 aminoacylation ribozyme variant]"
  self-aminoacylation: 0.752
- CHAIN: "AUUAGCCUGGUCAUCGAGGGA [Fam2.1 aminoacylation ribozyme variant]"
  self-aminoacylation: 1.49
- CHAIN: "AUUCGCCUGGUCAUCGAGUGA [Fam2.1 aminoacylation ribozyme variant]"
  self-aminoacylation: 4.4
- CHAIN: "AAGUAUGCUGAUAGUCGCAAG [Fam3.1 aminoacylation ribozyme variant]"
  self-aminoacylation: 1.94

====

- System: biotinyl-Phe-oxazolone
- RUN DESCRIPTION: self-aminoacylation, catalytic enhancement (BFO) (fold over background); higher = more active; k-Seq, kA / k0A0; sequences stand for … in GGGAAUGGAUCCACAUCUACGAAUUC…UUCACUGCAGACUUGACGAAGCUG
Variants at the floor of the assay were thinned out.
Reported self-aminoacylation values for the following sequences.
ASSAY READOUT: self-aminoacylation

- CHAIN: "CCACGUCAAACAAUCGGUCUG [Fam1A.1 aminoacylation ribozyme variant]"
  ASSAY READOUT: "self-aminoacylation"
  NUMBER: 2.2
- CHAIN: "AAUCACCUAGGUAAUCGGGUG [Fam2.2 aminoacylation ribozyme variant]"
  ASSAY READOUT: "self-aminoacylation"
  NUMBER: 14.1
- CHAIN: "CCACACUUCAAGCAAUCCUUC [Fam1B.1 aminoacylation ribozyme variant]"
  ASSAY READOUT: "self-aminoacylation"
  NUMBER: 1.19
- CHAIN: "AUUACUCUGGUCAUCGCGUGA [Fam2.1 aminoacylation ribozyme variant]"
  ASSAY READOUT: "self-aminoacylation"
  NUMBER: 117
- CHAIN: "AAGGUUGCUAAUAGGCGCAAG [Fam3.1 aminoacylation ribozyme variant]"
  ASSAY READOUT: "self-aminoacylation"
  NUMBER: 1.11
- CHAIN: "AUUACCCUGGUACUCGAGUGA [Fam2.1 aminoacylation ribozyme variant]"
  ASSAY READOUT: "self-aminoacylation"
  NUMBER: 10.3
- CHAIN: "CUACUGCUAACAAUCGGUCUG [Fam1A.1 aminoacylation ribozyme variant]"
  ASSAY READOUT: "self-aminoacylation"
  NUMBER: 0.437
- CHAIN: "CCACACUUCAAGCUAACGGUC [Fam1B.1 aminoacylation ribozyme variant]"
  ASSAY READOUT: "self-aminoacylation"
  NUMBER: 0.79
- CHAIN: "AUUACCAUGGUCACCGAGUGA [Fam2.1 aminoacylation ribozyme variant]"
  ASSAY READOUT: "self-aminoacylation"
  NUMBER: 49.9
- CHAIN: "AGGUUUGCUAGUAGUCGCAAG [Fam3.1 aminoacylation ribozyme variant]"
  ASSAY READOUT: "self-aminoacylation"
  NUMBER: 1.49
- CHAIN: "AUUCACCUAGGCCACCGGGUG [Fam2.2 aminoacylation ribozyme variant]"
  ASSAY READOUT: "self-aminoacylation"
  NUMBER: 13.6
- CHAIN: "UUUUCCCUGGUCAUCGAGUGA [Fam2.1 aminoacylation ribozyme variant]"
  ASSAY READOUT: "self-aminoacylation"
  NUMBER: 16.5
- CHAIN: "CCACACUUCAAGCAACCGGGC [Fam1B.1 aminoacylation ribozyme variant]"
  ASSAY READOUT: "self-aminoacylation"
  NUMBER: 3.1
- CHAIN: "CUACCCUUCAAGCAAUCGGUC [Fam1B.1 aminoacylation ribozyme variant]"
  ASSAY READOUT: "self-aminoacylation"
  NUMBER: 8.35
- CHAIN: "AAUAACCUAGGUCAUCGGGUG [Fam2.2 aminoacylation ribozyme variant]"
  ASSAY READOUT: "self-aminoacylation"
  NUMBER: 22.8
- CHAIN: "GUUCAUCUAGGUCAUCGGGUG [Fam2.2 aminoacylation ribozyme variant]"
  ASSAY READOUT: "self-aminoacylation"
  NUMBER: 35.3
